Measured values drawn from ChEMBL document CHEMBL1136016 for this set.

molecular target: Adenosine receptor A2b (Homo sapiens); assay: Displacement of [3H]DPCPX from human Adenosine A2B receptor expressed in HEK293 cells; range 49-77; format: cell-based
Sequence (P29275 whole entry): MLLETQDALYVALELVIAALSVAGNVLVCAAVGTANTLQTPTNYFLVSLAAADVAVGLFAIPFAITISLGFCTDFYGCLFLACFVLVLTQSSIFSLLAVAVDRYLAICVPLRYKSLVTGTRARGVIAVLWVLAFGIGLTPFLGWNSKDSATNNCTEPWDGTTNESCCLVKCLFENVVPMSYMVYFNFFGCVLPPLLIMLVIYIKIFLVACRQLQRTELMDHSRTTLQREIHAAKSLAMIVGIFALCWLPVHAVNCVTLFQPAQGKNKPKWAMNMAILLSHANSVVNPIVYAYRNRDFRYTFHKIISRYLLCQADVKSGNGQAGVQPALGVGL
Measure: Ki
Please don't drop the unit; write it after the number.

Suppose we examine the compound `CCCn1cc2c(nc(NC(=O)Nc3ccccc3Cl)n3nc(-c4ccco4)nc23)n1` ; what Ki value has been reported?
61 nM

* * *

target: Adenosine receptor A1 (Homo sapiens, UniProt P30542); experiment: Displacement of [3H]DPCPX from human Adenosine A1 receptor expressed in CHO cells; range 216-412; assay type: cell-based
Sequence (P30542 whole entry): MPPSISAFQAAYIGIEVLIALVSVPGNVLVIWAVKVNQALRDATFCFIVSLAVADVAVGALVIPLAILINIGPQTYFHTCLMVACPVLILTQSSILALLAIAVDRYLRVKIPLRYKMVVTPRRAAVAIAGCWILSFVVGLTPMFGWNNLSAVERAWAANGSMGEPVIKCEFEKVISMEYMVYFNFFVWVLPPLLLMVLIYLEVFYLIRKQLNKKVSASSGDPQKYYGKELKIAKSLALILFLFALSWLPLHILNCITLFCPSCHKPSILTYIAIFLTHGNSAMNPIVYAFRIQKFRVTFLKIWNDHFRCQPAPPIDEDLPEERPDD
Measure: Ki (nM)
# unit: nM | format: bare number

Suppose we examine the molecule `CCn1cc2c(nc(NC(=O)Nc3ccccc3OC)n3nc(-c4ccco4)nc23)n1` ; what Ki value has been reported?
300
